IC50 listing for selected compounds.
- System: Human T24 bladder carcinoma cells
- Procedure Summary: Inhibition of the growth of human T24 bladder carcinoma cells
- Format: cell-based
- Condition Summary: 120 h, 5 days incubation, methylene blue staining, OD 665 nm

| Entry Smiles | Measurement Unit | IC50 |
| --- | --- | --- |
| c1cncc(-c2ccnc(Nc3cccc(-n4ccnc4)c3)n2)c1 | µM | 2.5 |
| FC(F)(F)c1cccc(Nc2nccc(-c3cccnc3)n2)c1 | µM | 7.4 |
| Clc1cccc(Nc2nccc(-c3cccnc3)n2)c1 | µM | 5.2 |
| Nc1cccc(Nc2nccc(-c3cccnc3)n2)c1 | µM | 7.2 |
